Hello, the source for this data is patent US10344025B2, in case you need it.

- target: purified recombinant human GAC (GLS1) (Homo sapiens (Human))
- assay.procedure: GLS1 Enzymatic Activity Assay (dual-coupled enzymatic assay, resorufin/Amplex UltraRed readout)
observable: IC50

compound	IC50
N#CCNC(=O)c1cn(CCC(F)Cn2cc(C(=O)NCc3cc(OC(F)(F)F)ccc3F)nn2)nn1 (centres unmarked)	< 100 nM
O=C(CC1CCCCC1)Nc1cn(CCCCn2cc(C(=O)NCc3cccc(OC(F)(F)F)c3)nn2)nn1	< 100 nM

In: So what does the record say about IC50 for "O=C(Cc1ccccn1)Nc1cn(CCCCn2cc(C(=O)NCc3cc(Cl)ccc3F)nn2)nn1" ?
Out: < 100 nM

In: So what does the record say about IC50 for "O=C(NCc1cncc(C(F)(F)F)c1)c1cn(CCCCn2cc(C(=O)NCc3ccc(C(F)(F)F)cn3)nn2)nn1" ?
Out: < 100 nM

In: So what does the record say about IC50 for O=C(Cc1ccccn1)Nc1ccc(CCC(F)Cn2cc(C(=O)NCc3cc(C(F)(F)F)ccn3)nn2)nn1 (centres unmarked) ?
Out: < 100 nM

In: So what does the record say about IC50 for "O=C(NCc1cncc(C(F)(F)F)c1)c1cn(CCCCn2cc(C(=O)NCc3cc(C4CC4)ccn3)nn2)nn1" ?
Out: < 100 nM

In: So what does the record say about IC50 for "CC(C)COC(=O)NCc1cn(CCCCn2cc(C(=O)NCc3cccc(OC(F)(F)F)c3)nn2)nn1" ?
Out: < 100 nM

In: So what does the record say about IC50 for O=C(Cc1cc(OC(F)(F)F)ccc1F)Nc1ccc(CCCCn2cc(C(=O)NCC3CCO3)nn2)nn1 (centres unmarked) ?
Out: < 100 nM

In: So what does the record say about IC50 for N#CCNC(=O)c1nnc(CCC(F)Cn2cc(C(=O)NCc3cccc(OC(F)(F)F)c3)nn2)s1 (centres unmarked) ?
Out: < 100 nM

In: So what does the record say about IC50 for CC(C)(C)OC(=O)N1CCC(Cn2cc(CCCCn3cc(C(=O)NCc4cccc(OC(F)(F)F)c4)nn3)nn2)CC1 [Example 8] ?
Out: 100 to 500 nM

In: So what does the record say about IC50 for "COCCNC(=O)c1nnc(CCCCn2cc(C(=O)NCc3ccccc3)nn2)s1" ?
Out: 500 to 5000 nM

* * *

- target: purified recombinant human GAC (GLS1) (Homo sapiens (Human), UniProt O94925)
- Sequence (O94925 other isoform, or with tags, fused parts or gaps): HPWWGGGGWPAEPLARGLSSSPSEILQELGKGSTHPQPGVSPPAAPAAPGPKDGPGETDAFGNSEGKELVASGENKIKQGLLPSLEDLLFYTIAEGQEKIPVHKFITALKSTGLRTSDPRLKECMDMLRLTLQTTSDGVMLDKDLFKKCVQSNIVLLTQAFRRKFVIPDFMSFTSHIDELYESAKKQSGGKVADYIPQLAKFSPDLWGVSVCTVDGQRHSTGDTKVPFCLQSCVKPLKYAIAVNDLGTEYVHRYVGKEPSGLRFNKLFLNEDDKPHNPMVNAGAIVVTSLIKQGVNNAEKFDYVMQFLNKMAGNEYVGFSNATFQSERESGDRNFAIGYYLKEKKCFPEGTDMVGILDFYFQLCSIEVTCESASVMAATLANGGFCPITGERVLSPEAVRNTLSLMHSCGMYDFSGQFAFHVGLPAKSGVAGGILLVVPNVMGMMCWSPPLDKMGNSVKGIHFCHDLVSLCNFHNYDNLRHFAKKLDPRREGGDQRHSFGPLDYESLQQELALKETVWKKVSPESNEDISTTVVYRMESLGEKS
- assay.procedure: GLS1 Enzymatic Activity Assay (dual-coupled enzymatic assay, resorufin/Amplex UltraRed readout);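 note: glutamate from GAC coupled via glutamate oxidase and peroxidase to resorufin, read as fluorescence (ex 530, em 590 nm) kinetically or at 20 min, four-parameter logistic IC50 fit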
pIC50: −log10 of the molar value.
Readings of pIC50 for the listed molecules

molecule	pIC50
O=C(CN1CC(F)(F)C1)Nc1cn(CC(F)CCn2cc(C(=O)NCc3cc(C(F)(F)F)ccn3)nn2)nn1 (stereo not shown) [Example 402]	6.30 to 7.00
O=C(Cc1cccc(OC(F)(F)F)c1)Nc1nnc(CCC(F)Cn2cc(C(=O)NCc3ccccn3)nn2)s1 (stereo not shown) [Example 533]	> 7.00
CNC(=O)c1cn(CCC(F)Cn2cc(C(=O)NCc3cncc(C4CC4)c3)nn2)nn1 (stereo not shown) [Example 164]	> 7.00

In: So what does the record say about pIC50 for CNC(=O)c1cn(CCCCc2ccc(NC(=O)Cc3cccc(-c4ccccn4)c3)nn2)nn1 [Example 545] ?
Out: > 7.00

In: So what does the record say about pIC50 for O=C(NCC(F)(F)F)c1cn(CC(F)CCc2nnc(C(=O)NCc3cncc(C(F)(F)F)c3)s2)nn1 (stereo not shown) [Example 506] ?
Out: 6.30 to 7.00

In: So what does the record say about pIC50 for CNC(=O)c1nnc(CCC(F)Cn2cc(C(=O)NCc3cc(C(F)(F)F)ccn3)nn2)s1 (stereo not shown) [Example 503] ?
Out: 6.30 to 7.00

In: So what does the record say about pIC50 for O=C(Cc1cc(OC(F)(F)F)ccc1F)Nc1ccc(CCCCn2cc(C(=O)NCc3ccncc3)nn2)nn1 [Example 587] ?
Out: > 7.00
